- condition: in water, 293.2 K
experimental endpoint: solubility (mole fraction)

• COC(=O)[C@@H](N)Cc1c[nH]c2ccccc12.Cl = 0.0107

====

- condition: in isopropanol, 323.2 K
experimental endpoint: solubility (mole fraction)

- COC(=O)[C@@H](N)Cc1c[nH]c2ccccc12.Cl: 0.00273

====

- condition: in methanol, 298.2 K
experimental endpoint: solubility (mole fraction)

- COC(=O)[C@@H](N)Cc1c[nH]c2ccccc12.Cl: 0.0334

====

- condition: in acetone, 323.2 K
experimental endpoint: solubility (mole fraction)

- COC(=O)[C@@H](N)Cc1c[nH]c2ccccc12.Cl: 0.00343
